target: T1, calcineurin expressed as the glutathione S-transferase fusion protein (GST-CN) (UniProt Q08209 2-347); experiment: FP competition (Condition E): 50 nM probe, 50 nM CN-GST, unlabeled compound titrated
T1 construct: also called CN-GST; recombinant GST-CN; not shown: glutathione S-transferase (GST) fusion partner
T1 sequence (Q08209 2-347): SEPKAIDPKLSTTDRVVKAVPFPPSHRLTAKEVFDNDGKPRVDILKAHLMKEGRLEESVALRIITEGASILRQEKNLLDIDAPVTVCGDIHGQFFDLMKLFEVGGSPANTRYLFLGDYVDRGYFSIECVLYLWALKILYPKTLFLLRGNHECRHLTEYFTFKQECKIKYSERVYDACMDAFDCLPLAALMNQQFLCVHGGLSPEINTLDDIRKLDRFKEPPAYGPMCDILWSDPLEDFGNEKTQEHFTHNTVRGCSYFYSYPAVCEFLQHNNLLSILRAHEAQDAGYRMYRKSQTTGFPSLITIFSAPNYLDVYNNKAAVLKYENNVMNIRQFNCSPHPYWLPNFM
As shown below, each of these binders has a reported pIC50 value.
Kindly note that pIC50 refers to -log10 of the concentration in mol/L and answer with the value alone.

Record excerpt, results attached:
>  <binder>
XIXITQHLSKQRRRRXF (not fully specified; N-terminal DCNA (2,3-dichlorisonicotinamide; Table 8 prints DCN); Tle at 1; Bhv = L-β-hydroxyvaline at 3 (Table 8 prints Hva); D-Leu; miniPEG; Lys side chain carrying cyclo-(Gln-(D-Arg)-Arg-(D-Arg)-Arg-(2-Nal)-(D-Phe)); C-terminal amide, also called CN103; compound 43)

>  <endpoint_result>
6.65

$$$$
>  <binder>
XIXITQHLSKQRRRRXF (not fully specified; N-terminal DCNA (2,3-dichlorisonicotinamide; Table 8 prints DCN, 2,3-dichloro-4-pyridinyl); Tle at 1 and 3; D-Leu; miniPEG; Lys side chain carrying cyclo-(Gln-(D-Arg)-Arg-(D-Arg)-Arg-(2-Nal)-(D-Phe)); C-terminal amide, also called compound 41; 41)

>  <endpoint_result>
6.74

$$$$

Field: next binder
stdin: Need pIC50 of XIXITQHLSXKQRRRRXF (not fully specified; N-terminal DCB (2,3-dichlorobenzoyl); Tle at 1 and 3; D-Leu; β-Ala; Lys side chain carrying cyclo-(Gln-(D-Arg)-Arg-(D-Arg)-Arg-(2-Nal)-(D-Phe)); C-terminal amide, It is therefore kept as a separate molecule) , thanks.
stdout: 6.07

Origin of values: patent US20240033318A1
